Each recorded value in this set is attributed to paper PMC6451128.

Target: T1, hPIF1HD R294A (human, UniProt Q9H611 206-620, R294A)
T1 sequence: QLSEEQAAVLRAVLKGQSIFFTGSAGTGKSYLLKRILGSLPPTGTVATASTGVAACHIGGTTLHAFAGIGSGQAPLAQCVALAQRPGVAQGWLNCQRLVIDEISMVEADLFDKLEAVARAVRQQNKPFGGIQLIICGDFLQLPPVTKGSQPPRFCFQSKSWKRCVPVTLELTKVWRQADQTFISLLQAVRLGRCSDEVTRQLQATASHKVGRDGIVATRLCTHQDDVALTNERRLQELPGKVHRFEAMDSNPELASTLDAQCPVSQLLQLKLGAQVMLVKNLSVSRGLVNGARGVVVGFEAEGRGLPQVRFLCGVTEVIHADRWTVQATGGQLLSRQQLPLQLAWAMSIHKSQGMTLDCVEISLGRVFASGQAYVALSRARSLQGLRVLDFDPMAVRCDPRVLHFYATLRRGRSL
Assay: EMSA; no nucleotide; apparent; 20 mM HEPES-NaOH pH 7.5 (Results say pH 7.2), 135 mM NaCl, 5% glycerol, 1 mM DTT, 1 mg/ml BSA, 20 min at 20 C; 0.4 nM T(35); G4 assay: 0.1 nM G4 DNA, 2% PEG 8000 instead of glycerol, 5 uM T(35) competitor
Details: protein: recombinant; tags: His tag removed, GSRM left; label: 5' 32P (PNK)
pKd: −log10 of the molar value.
Reported Endpoint: pKd

>>> df
                                     binder  reported_endpoint  endpoint_value
0  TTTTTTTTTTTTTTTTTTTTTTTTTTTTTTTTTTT (ssDNA) [poly-T(35)]                pKd            8.24
